Biological target: Trypsin (Homo sapiens, UniProt P07477+P07478+P35030)
Assay: Inhibitory constant against human trypsin
Assay type: protein assay
Ki reference
Quantity: Ki

Compound	Result
N=C(N)c1ccc2[nH]cc(C(Cc3ccccc3)C(=O)Nc3ccc(-c4ccccc4S(N)(=O)=O)cc3)c2c1 (stereo not given)	0.15 µM
N=C(N)c1ccc2scc(C(Cc3cccc4ccccc34)C(=O)Nc3ccc(-n4cnc5ccccc54)cc3)c2c1.O=C(O)C(F)(F)F (stereo not given)	3.9 µM
N=C(N)c1ccc2scc(C(Cc3ccc(N)cc3)C(=O)Nc3ccc(-n4cnc5ccccc54)cc3)c2c1.O=C(O)C(F)(F)F (stereo not given)	> 4.2 µM
CCOC(=O)[C@@H]1CCCCC1NC(=O)C(Cc1ccccc1)C1=CS(=O)(=O)c2ccc(C(=N)N)cc21 (stereo not given in full)	> 4.2 µM
N=C(N)c1ccc2scc(C(Cc3ccccc3)C(=O)Nc3ccc(-n4cnc5ccccc54)cc3)c2c1.O=C(O)C(F)(F)F (stereo not given)	1.02 µM
N=C(N)c1ccc2[nH]cc(C(Cc3ccc(N)cc3)C(=O)Nc3ccc(-n4cnc5ccccc54)cc3)c2c1.O=C(O)C(F)(F)F (stereo not given)	> 4.2 µM
COC(=O)[C@@H]1CCCCC1NC(=O)C(Cc1ccccc1)c1c[nH]c2ccc(C(=N)N)cc12 (stereo not given in full)	1.5 µM
N=C(N)c1ccc2[nH]cc(C(Cc3ccccc3)C(=O)Nc3ccc(-n4cnc5ccccc54)cc3F)c2c1.O=C(O)C(F)(F)F (stereo not given)	0.34 µM
N=C(N)c1ccc2scc(C(CC(=O)Nc3ccc(-n4cnc5ccccc54)cc3)Cc3ccccc3)c2c1.O=C(O)C(F)(F)F (stereo not given)	> 4.2 µM
CCOC(=O)[C@@H]1CCCCC1NC(=O)C(Cc1ccccc1)c1coc2ccc(C(=N)N)cc12 (stereo not given in full)	> 4.2 µM

* * *

log10(Ki) reference
Molecular target: Coagulation factor X (Homo sapiens, UniProt P00742)
Sequence (P00742 41-179 limits assumed): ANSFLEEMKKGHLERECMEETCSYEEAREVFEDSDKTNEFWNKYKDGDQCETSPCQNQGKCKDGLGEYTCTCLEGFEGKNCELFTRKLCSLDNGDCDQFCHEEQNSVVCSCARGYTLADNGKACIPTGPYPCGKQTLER
Sequence (P00742 235-488 limits assumed): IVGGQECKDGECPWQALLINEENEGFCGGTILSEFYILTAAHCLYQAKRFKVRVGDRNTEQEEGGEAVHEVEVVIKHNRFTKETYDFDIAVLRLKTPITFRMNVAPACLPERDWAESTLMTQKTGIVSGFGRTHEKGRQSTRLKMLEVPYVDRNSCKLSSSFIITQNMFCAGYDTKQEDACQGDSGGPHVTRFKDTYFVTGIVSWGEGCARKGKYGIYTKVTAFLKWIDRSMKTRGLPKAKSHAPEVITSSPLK
Quantity: log10(Ki) (log10 of the value in nM)

Compound	System	log10(Ki)
N=C(N)c1ccc2scc(C(Cc3ccccc3)C(=O)Nc3ccc(-n4cnc5ccccc54)cc3)c2c1.O=C(O)C(F)(F)F (stereo not given)	Coagulation factor X (Homo sapiens, UniProt P00742)	2.08
CC1CCC(NC(=O)C(Cc2ccccc2)c2csc3ccc(C(=N)N)cc23)CC1 (stereo not given)	Coagulation factor X (Homo sapiens, UniProt P00742)	3.51
CCOC(=O)[C@@H]1CCCCC1NC(=O)[C@@H](Cc1ccccc1)c1csc2ccc(C(=N)N)cc12 (stereo not given in full)	Coagulation factor X (Homo sapiens, UniProt P00742)	2.26
N=C(N)c1ccc2scc(C(Cc3cccc4ccccc34)C(=O)Nc3ccc(-n4cnc5ccccc54)cc3)c2c1.O=C(O)C(F)(F)F (stereo not given)	Coagulation factor X (Homo sapiens, UniProt P00742)	2.87
N=C(N)c1ccc2scc(C(Cc3ccc(N)cc3)C(=O)Nc3ccc(-n4cnc5ccccc54)cc3)c2c1.O=C(O)C(F)(F)F (stereo not given)	Coagulation factor X (Homo sapiens, UniProt P00742)	1.67
CCNC(=O)[C@@H]1CCCCC1NC(=O)[C@@H](Cc1ccccc1)c1csc2ccc(C(=N)N)cc12 (stereo not given in full)	Coagulation factor X (Homo sapiens, UniProt P00742)	2.11
COC(=O)[C@@H]1CCCCC1NNC(=O)C(Cc1ccccc1)c1csc2ccc(C(=N)N)cc12 (stereo not given in full)	Coagulation factor X (Homo sapiens, UniProt P00742)	1.95
N=C(N)c1ccc2scc(C(Cc3ccccc3)C(=O)Nc3ccc(-n4cnc(-c5ccccc5)c4)cc3)c2c1.O=C(O)C(F)(F)F (stereo not given)	Coagulation factor X (Homo sapiens, UniProt P00742)	3.31
